tested on: HeLa Kyoto; assay: solubility change mitosis vs G1/S (difference of NP-40 vs SDS log2 ratios) (log2 ratio difference); higher = more soluble in mitosis;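 also: synchronized HeLa Kyoto cells (double thymidine block for G1/S, nocodazole release for mitosis), protein amounts in NP-40 versus SDS lysates quantified by mass spectrometry, three biological replicates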
quantity-name: solubility change mitosis (log2)
Numbers only.

MEAARTAVLRVKRKRSAEPAEALVLACKRLRSDAVESAAQKTSEGLERAAENNVFHLVATVCSQEEPVQPLLREVLRPSRDSQQRVRRNLRASAREVRQEGRYRVLSSRRSLGTTSSGQESEYTPGNPEAAGNSGFQLLDLVHEEGEPEAASAGSCKTSDPDVILCNSVELIRERLTVSEDGPGVRRQEEQKHDDYVYDIYYLETATPGWIENILSVQPYSQEWELVNDDQEPEDIYDDEDDENSENNWRNEYPEEESSDGDEDSRGSADYNSLSEEERGSSRQRMWSKYPLDVQKEFGYDSPHDLDSD [SLC7A6OS] = -0.117
MVEADRPGKLFIGGLNTETNEKALEAVFGKYGRIVEVLLMKDRETNKSRGFAFVTFESPADAKDAARDMNGKSLDGKAIKVEQATKPSFESGRRGPPPPPRSRGPPRGLRGGRGGSGGTRGPPSRGGHMDDGGYSMNFNMSSSRGPLPVKRGPPPRSGGPPPKRSAPSGPVRSSSGMGGRAPVSRGRDSYGGPPRREPLPSRRDVYLSPRDDGYSTKDSYSSRDYPSSRDTRDYAPPPRDYTYRDYGHSSSRDDYPSRGYSDRDGYGRDRDYSDHPSGGSYRDSYESYGNSRSAPPTRGPPPSYGGSSRYDDYSSSRDGYGGSRDSYSSSRSDLYSSGRDRVGRQERGLPPSMERGYPPPRDSYSSSSRGAPRGGGRGGSRSDRGGGRSRY [RBMX] = 0.777

Let us examine a further case.
Tell me the measured solubility change mitosis (log2) of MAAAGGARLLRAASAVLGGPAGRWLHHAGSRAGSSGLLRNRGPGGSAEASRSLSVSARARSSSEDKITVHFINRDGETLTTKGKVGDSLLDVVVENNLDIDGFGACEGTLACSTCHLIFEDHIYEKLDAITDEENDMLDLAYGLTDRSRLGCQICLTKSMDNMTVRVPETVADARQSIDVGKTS [FDX1] , please.
-0.0683
